molecular target: Thr247Ala mutant E. coli DHOD (Escherichia coli, UniProt P0A7E1, T247A); experiment: Reductive half-reaction with DHO, anaerobic stopped-flow; format: biochemical
Sequence (P0A7E1 whole entry T247A): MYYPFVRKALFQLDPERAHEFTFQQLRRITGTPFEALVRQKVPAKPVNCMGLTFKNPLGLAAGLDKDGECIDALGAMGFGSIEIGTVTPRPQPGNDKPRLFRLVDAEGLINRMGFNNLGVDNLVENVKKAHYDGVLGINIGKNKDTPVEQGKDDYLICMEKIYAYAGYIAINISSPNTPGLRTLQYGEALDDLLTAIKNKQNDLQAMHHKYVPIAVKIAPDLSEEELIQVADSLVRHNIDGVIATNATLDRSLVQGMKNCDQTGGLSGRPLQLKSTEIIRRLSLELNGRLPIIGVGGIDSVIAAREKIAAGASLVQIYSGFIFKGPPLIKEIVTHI
READOUT: Kd (µM)
Quick reminder: number only, in µM, skip the unit.

Incoming: Would you kindly share the measured Kd for O=C1C[C@@H](C(=O)O)NC(=O)N1 [DHO, dihydroorotate] ?
Outgoing: 198

* * *

target: Thr247Ala mutant E. coli DHOD (Escherichia coli, UniProt P0A7E1, T247A); experiment: biochemical
READOUT: Kd

Incoming: GET /values?readout=Kd&system=Thr247Ala mutant E. coli DHOD (Escherichia coli, UniProt P0A7E1, T247A)&item= O=C(O)c1cc(=O)[nH]c(=O)[nH]1 [OA, orotate]
Outgoing: 39.3 µM

The measurements presented in this section are drawn from paper PMC2800825.
